Assay: Pharmacokinetic evaluation in rats
Type: in vivo, SD female rats
Conditions: female, SD, rat, plasma, Oral administration (10 mg/kg)
reported_metric: AUC(0-t) (ng·h/mL)
Kindly answer with a numeric value in ng·h/mL, unit omitted.

Prompt: Please give the documented AUC(0-t) of "C[C@@H]1COCCN1c1cc(C2(C#N)CCOCC2)c2ccnc(-c3ccn[nH]3)c2n1"
Completion: 8030

----------
Experiment: Pharmacokinetic evaluation in rats
Format: in vivo, SD female rats
Conditions: female, SD, rat, plasma, iv, Injection (1 mg/kg), read-out: Vdss
reported_metric: Vd (L/kg)
Answer in L/kg, number only, no unit symbol.

Prompt: State, in one line, measured Vd of C[C@@H]1COCCN1c1cc(C2(C#N)CCOCC2)c2ccnc(-c3ccn[nH]3)c2n1 [Compound 29]
Completion: 3

----------
# clearance listing for each entry below
Test: In vivo pharmacokinetic experiment in mice
Set-up: species or system CD-1 female mice
Conditions: female, CD-1, mouse, plasma, iv, Injection (2 mg/kg)
Just the number please, in mL/min/kg, no unit attached.

>>> value_measured("C[C@@H]1COCCN1c1cc(C2(C#N)CCOCC2)c2ccnc(-c3ccn[nH]3)c2n1")
17.4
>>> value_measured("C[C@@H]1COCCN1c1cc(C2(C#N)CCN(C)CC2)c2ccnc(-c3ccn[nH]3)c2n1")
135
>>> value_measured("C[C@@H]1COCCN1c1cc(C2(C#N)CCC(O)CC2)c2ccnc(-c3ccn[nH]3)c2n1 (stereo partly shown)")
56.6

Prompt: Give the measured clearance for COC1CCC(C#N)(c2cc(N3CCOC[C@H]3C)nc3c(-c4ccn[nH]4)nccc23)CC1 (stereo partly shown)
Completion: 75.1

----------
Assay: In vivo pharmacokinetic experiment in mice
Design: species or system CD-1 female mice
Conditions: female, CD-1, mouse, plasma, iv, Injection (2 mg/kg), read-out: Vdss
reported_metric: Vd
State the value with its unit after it.

Known results for compounds:
>>> value_measured("C[C@@H]1COCCN1c1cc(C2(C#N)CCOCC2)c2ccnc(-c3ccn[nH]3)c2n1")
"0.58 L/kg"
>>> value_measured("C[C@@H]1COCCN1c1cc(C2(C#N)CCN(C)CC2)c2ccnc(-c3ccn[nH]3)c2n1")
"1.79 L/kg"
>>> value_measured("COC1CCC(C#N)(c2cc(N3CCOC[C@H]3C)nc3c(-c4ccn[nH]4)nccc23)CC1 (stereo partly shown)")
"1.61 L/kg"

Could you now consider this next compound?
Prompt: Tell me Vd reported for C[C@@H]1COCCN1c1cc(C2(C#N)CCC(O)CC2)c2ccnc(-c3ccn[nH]3)c2n1 (stereo partly shown)
Completion: 1.27 L/kg

----------
Test: Pharmacokinetic evaluation in rats
Format: in vivo, SD female rats
Settings: female, SD, rat, plasma, iv, Injection (1 mg/kg)
reported_metric: half-life (h)
Report only the number, with the unit h understood.

Prompt: Determine its reported half-life: "C[C@@H]1COCCN1c1cc(C2(C#N)CCOCC2)c2ccnc(-c3ccn[nH]3)c2n1"
Completion: 1.71

----------
Below, each entry is listed alongside its reported half-life.
Test: In vivo pharmacokinetic experiment in mice
Parameters: species or system CD-1 female mice
Conditions: female, CD-1, mouse, plasma, Oral administration (10 mg/kg)
Answer format: numeric, min implied, no suffix.

>>> value_measured("C[C@@H]1COCCN1c1cc(C2(C#N)CCOCC2)c2ccnc(-c3ccn[nH]3)c2n1")
46.8
>>> value_measured("C[C@@H]1COCCN1c1cc(C2(C#N)CCC(O)CC2)c2ccnc(-c3ccn[nH]3)c2n1 (stereo partly shown)")
41.4
>>> value_measured("C[C@@H]1COCCN1c1cc(C2(C#N)CCN(C)CC2)c2ccnc(-c3ccn[nH]3)c2n1")
47.4

Below: the item to evaluate.
Prompt: Fill in reported half-life for this entry: COC1CCC(C#N)(c2cc(N3CCOC[C@H]3C)nc3c(-c4ccn[nH]4)nccc23)CC1 (stereo partly shown)
Completion: 87

----------
Tmax for assorted compounds
Assay: In vivo pharmacokinetic experiment in mice
Parameters: species or system CD-1 female mice
Settings: female, CD-1, mouse, plasma, Oral administration (10 mg/kg), read-out: Tmax
Procedure: CD-1 female mice aged 7 to 10 weeks were intravenously administered and orally administered at a dose of 2 mg/kg and 10 mg/kg, respectively. The mice were fasted for at least 12 h before the administration and given food 4 h after the administration, and they were given ad libitum access to water during the experiment. […]
Expressed in min, but write only the number.

>>> value_measured("C[C@@H]1COCCN1c1cc(C2(C#N)CCN(C)CC2)c2ccnc(-c3ccn[nH]3)c2n1")
15
>>> value_measured("C[C@@H]1COCCN1c1cc(C2(C#N)CCC(O)CC2)c2ccnc(-c3ccn[nH]3)c2n1 (stereo partly shown)")
30
>>> value_measured("C[C@@H]1COCCN1c1cc(C2(C#N)CCOCC2)c2ccnc(-c3ccn[nH]3)c2n1")
30

The record that follows has no Tmax shown yet.
Prompt: Check the records and state Tmax for COC1CCC(C#N)(c2cc(N3CCOC[C@H]3C)nc3c(-c4ccn[nH]4)nccc23)CC1 (stereo partly shown)
Completion: 30

----------
System: MIA PaCa-2 cells
Assay: In-vitro anti-proliferative activity in combination with gemcitabine against MIA PaCa-2 cells
Assay type: cell-based
Details: in combination with 20 nM gemcitabine, 72 h after dosing
Mark each entry true (1) if its IC50 sits below 1 nM, and false (0) for all others.

>>> classification("C[C@@H]1COCCN1c1cc(C2(C#N)CCC(N(C)C)CC2)c2ccnc(-c3ccn[nH]3)c2n1 (stereo partly drawn)")
"true (1)"
>>> classification("C[C@@H]1COCCN1c1cc(C2(C#N)CCC(O)CC2)c2ccnc(-c3ccn[nH]3)c2n1 (stereo partly drawn)")
"false (0)"
>>> classification("C[C@@H]1COCCN1c1cc(C2(C#N)CCN(C)CC2)c2ccnc(-c3ccn[nH]3)c2n1")
"false (0)"
>>> classification("C[C@@H]1COCCN1c1cc(C2(C#N)CCC(N3CCCC3)CC2)c2ccnc(-c3ccn[nH]3)c2n1 (stereo partly drawn)")
"true (1)"
>>> classification("C[C@@H]1COCCN1c1cc(C2(C#N)CCOCC2)c2ccnc(-c3ccn[nH]3)c2n1")
"false (0)"

Now, please, on to the next compound.
Prompt: Quick check: does "C[C@@H]1COCCN1c1cc(C2(C#N)CCCC2)c2ccnc(-c3ccn[nH]3)c2n1" have IC50 under 1 nM?
Completion: false (0)

----------
Assay: Pharmacokinetic evaluation in rats
Format: in vivo, SD female rats
Conditions: female, SD, rat, plasma, Oral administration (10 mg/kg), read-out: Tmax
reported_metric: Tmax (h)
Only the number, expressed in h, is required.

Prompt: Please list Tmax recorded for the compound "C[C@@H]1COCCN1c1cc(C2(C#N)CCOCC2)c2ccnc(-c3ccn[nH]3)c2n1"
Completion: 1

----------
Entries and their half-life values follow.
Assay: In vivo pharmacokinetic experiment in mice
Design: species or system CD-1 female mice
Settings: female, CD-1, mouse, plasma, iv, Injection (2 mg/kg)
Give just the number in min; leave the unit off.

Prompt: Could you please provide reported half-life for COC1CCC(C#N)(c2cc(N3CCOC[C@H]3C)nc3c(-c4ccn[nH]4)nccc23)CC1 (stereo partly shown) [Compound 53] ? Thanks!
Completion: 16.2

Prompt: For the molecule C[C@@H]1COCCN1c1cc(C2(C#N)CCC(O)CC2)c2ccnc(-c3ccn[nH]3)c2n1 (stereo partly shown) [Compound 33] , give its measured half-life value.
Completion: 96.6

Prompt: Query half-life for C[C@@H]1COCCN1c1cc(C2(C#N)CCOCC2)c2ccnc(-c3ccn[nH]3)c2n1 [Compound 29]
Completion: 40.2

Prompt: Complete the entry with half-life for C[C@@H]1COCCN1c1cc(C2(C#N)CCN(C)CC2)c2ccnc(-c3ccn[nH]3)c2n1 [Compound 43]
Completion: 13.2

----------
Test: In vivo pharmacokinetic experiment in mice
Parameters: species or system CD-1 female mice
Conditions: female, CD-1, mouse, plasma, Oral administration (10 mg/kg), read-out: Cmax
Consider the following compounds and their measured Cmax readings.
Report the value in ng/mL with no unit label.

>>> value_measured("C[C@@H]1COCCN1c1cc(C2(C#N)CCN(C)CC2)c2ccnc(-c3ccn[nH]3)c2n1")
616
>>> value_measured("COC1CCC(C#N)(c2cc(N3CCOC[C@H]3C)nc3c(-c4ccn[nH]4)nccc23)CC1 (stereo partly shown)")
299
>>> value_measured("C[C@@H]1COCCN1c1cc(C2(C#N)CCC(O)CC2)c2ccnc(-c3ccn[nH]3)c2n1 (stereo partly shown)")
1010

Prompt: Answer with the recorded Cmax for the compound listed here: "C[C@@H]1COCCN1c1cc(C2(C#N)CCOCC2)c2ccnc(-c3ccn[nH]3)c2n1"
Completion: 1720
